Origin of measurements: patent US10087148B2

Please provide measured Emax for the entries that follow.
Target: serotonin transporter (SERT) (Rattus norvegicus (Rat), UniProt P31652)
Sequence (P31652 whole entry): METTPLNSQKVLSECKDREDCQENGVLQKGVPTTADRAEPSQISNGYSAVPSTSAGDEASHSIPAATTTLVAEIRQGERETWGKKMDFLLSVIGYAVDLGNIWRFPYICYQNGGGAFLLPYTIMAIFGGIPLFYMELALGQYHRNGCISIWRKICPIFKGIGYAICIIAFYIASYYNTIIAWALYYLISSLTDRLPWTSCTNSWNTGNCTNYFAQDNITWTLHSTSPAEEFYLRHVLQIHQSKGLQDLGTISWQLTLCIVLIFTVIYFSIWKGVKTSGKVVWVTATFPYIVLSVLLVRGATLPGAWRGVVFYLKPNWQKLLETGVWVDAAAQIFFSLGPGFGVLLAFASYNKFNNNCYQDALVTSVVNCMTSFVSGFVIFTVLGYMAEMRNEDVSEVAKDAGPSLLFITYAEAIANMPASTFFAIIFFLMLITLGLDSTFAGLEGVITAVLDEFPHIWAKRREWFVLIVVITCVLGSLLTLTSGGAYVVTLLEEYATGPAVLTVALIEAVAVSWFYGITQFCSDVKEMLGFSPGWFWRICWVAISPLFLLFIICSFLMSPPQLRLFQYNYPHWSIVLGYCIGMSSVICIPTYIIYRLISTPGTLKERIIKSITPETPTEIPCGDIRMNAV
Assay: [3H]serotonin (5-HT) uptake inhibition in rat brain synaptosomes
Format: biochemical
Details: mean ± S.D.; n = 3; read-out: SERT Uptake Emax
Description: Uptake inhibition assay for the serotonin transporter was conducted in rat brain synaptosomes as described elsewhere with minor modifications (Rothman et al., Synapse 39, 32-41 (2001)). […] Transporter activity at SERT was assessed using 5 nM [^3H]serotonin. […] Nonspecific uptake was measured by incubating in the presence of 10 μM indatraline. […]
Just the number please, in %, no unit attached.

What does the record list as Emax for c1ccc(C(CNc2nc(-c3ccc4nccn4c3)nc3ccccc23)c2cccnc2)cc1 (centres unmarked) [SRI-30946] ?
59

What value of Emax has been recorded for this entry: OC(CNc1nc(-c2cnc3nccn3c2)nc2ccccc12)(c1ccccc1)c1ccccc1 [SRI-30508]
56

Give the measured Emax of c1ccc(C(CNc2nc(-c3cnc4nccn4c3)nc3ccccc23)C2CCCCC2)cc1 (centres unmarked) [SRI-30517] .
54

What measured Emax goes with CS(=O)(=O)Nc1ccc(-c2nc(NCC(c3ccccc3)c3ccccc3)c3ccccc3n2)c(Cl)c1 [Compound 53] ?
51

Which Emax value belongs to CS(=O)(=O)Nc1ccc(-c2nc(NCC(c3ccccc3)c3ccccc3)c3ccccc3n2)cc1 [Compound 50] ?
56

Which measured Emax value corresponds to CS(=O)(=O)Nc1ccc(-c2nc(NCC(O)(c3ccccc3)c3ccccc3)c3ccccc3n2)cc1 [Compound 4] ?
55

Which measured Emax value corresponds to Cc1cc(NS(C)(=O)=O)ccc1-c1nc(NCC(c2ccccc2)c2ccccc2)c2ccccc2n1 [Compound 52] ?
50

For the compound Cc1cc2nccn2cc1-c1nc(NCC(c2ccccc2)c2ccncc2)c2ccccc2n1 (centres unmarked) [SRI-31142] , what Emax is on record?
48
